Experiment: Animal biodistribution studies of 99mTc complexes in rats
Format: in vivo, Male Sprague Dawley rats
Set-up: unit not given here
Details: i.v. tail vein, Time P. I. 60
Listing of entries alongside the reported Muscle.

{"columns": ["Molecule", "Muscle"],
 "data": [
  ["CP(C)COCP(C)C (99mTc complex, metal not drawn)", 27.4],
  ["COCCOCC(COCCOC)(CP(C)C)CP(C)C", 10.9],
  ["COCCC(CCOC)(CP(C)C)CP(C)C (99mTc complex, metal not drawn)", 14.9],
  ["CCOCC(COCC)(CP(C)C)CP(C)C (99mTc complex, metal not drawn)", 21.3]
]}

====

Assay: Animal biodistribution studies of 99mTc complexes in rats
Type: in vivo, Male Sprague Dawley rats
Parameters: unit not given here
Settings: i.v. tail vein, Time P. I. 60
Listing of entries alongside the reported Lung.

{"columns": ["Compound", "Lung"],
 "data": [
  ["CP(C)COCP(C)C (99mTc complex, metal not drawn)", 0.62],
  ["CCOCC(COCC)(CP(C)C)CP(C)C (99mTc complex, metal not drawn)", 1.57],
  ["COCCC(CCOC)(CP(C)C)CP(C)C (99mTc complex, metal not drawn)", 0.43],
  ["COCCOCC(COCCOC)(CP(C)C)CP(C)C", 0.22]
]}

====

Test: Animal biodistribution studies of 99mTc complexes in rats
Assay type: in vivo, Male Sprague Dawley rats
Parameters: unit not given here
Conditions: i.v. tail vein, Time P. I. 2

{"columns": ["Compound", "Muscle"],
 "data": [
  ["COCCOCC(COCCOC)(CP(C)C)CP(C)C", 21.7],
  ["COCCC(CCOC)(CP(C)C)CP(C)C (99mTc complex, metal not drawn)", 18.7],
  ["CP(C)COCP(C)C (99mTc complex, metal not drawn)", 30.2],
  ["CCOCC(COCC)(CP(C)C)CP(C)C (99mTc complex, metal not drawn)", 18.1]
]}

====

Assay: Animal biodistribution studies of 99mTc complexes in rats
Format: in vivo, Male Sprague Dawley rats
Design: unit not given here
Settings: i.v. tail vein, Time P. I. 2
Listing of entries alongside the reported Bladder & Urine.
Property measured: Bladder & Urine

{"columns": ["Molecule", "Property measured", "Recorded result"],
 "data": [
  ["COCCOCC(COCCOC)(CP(C)C)CP(C)C", "Bladder & Urine", 0.16],
  ["CP(C)COCP(C)C (99mTc complex, metal not drawn)", "Bladder & Urine", 0.11],
  ["CCOCC(COCC)(CP(C)C)CP(C)C (99mTc complex, metal not drawn)", "Bladder & Urine", 0.06],
  ["COCCC(CCOC)(CP(C)C)CP(C)C (99mTc complex, metal not drawn)", "Bladder & Urine", 0.09]
]}

====

Listing of entries alongside the reported Blood.
Assay: Animal biodistribution studies of 99mTc complexes in rats
Format: in vivo, Male Sprague Dawley rats
Parameters: unit not given here
Settings: i.v. tail vein, Time P. I. 2
Property measured: Blood

{"columns": ["Molecule", "Recorded result"],
 "data": [
  ["COCCC(CCOC)(CP(C)C)CP(C)C (99mTc complex, metal not drawn) [PL50]", 4.38],
  ["COCCOCC(COCCOC)(CP(C)C)CP(C)C [PL43]", 21.5],
  ["CP(C)COCP(C)C (99mTc complex, metal not drawn) [PL28]", 4.18],
  ["CCOCC(COCC)(CP(C)C)CP(C)C (99mTc complex, metal not drawn) [PL42]", 28.6]
]}

====

Assay: Animal biodistribution studies of 99mTc complexes in rats
Format: in vivo, Male Sprague Dawley rats
Design: unit not given here
Conditions: i.v. tail vein, Time P. I. 60

{"columns": ["Compound", "Blood"],
 "data": [
  ["COCCOCC(COCCOC)(CP(C)C)CP(C)C [PL43]", 1.14],
  ["CCOCC(COCC)(CP(C)C)CP(C)C (99mTc complex, metal not drawn) [PL42]", 8.99],
  ["CP(C)COCP(C)C (99mTc complex, metal not drawn) [PL28]", 0.46],
  ["COCCC(CCOC)(CP(C)C)CP(C)C (99mTc complex, metal not drawn) [PL50]", 0.42]
]}

====

Assay: Animal biodistribution studies of 99mTc complexes in rats
Type: in vivo, Male Sprague Dawley rats
Design: unit not given here
Conditions: i.v. tail vein, Time P. I. 2
Listing of entries alongside the reported Kidney.

{"columns": ["Molecule", "Kidney"],
 "data": [
  ["CP(C)COCP(C)C (99mTc complex, metal not drawn) [PL28]", 9.41],
  ["CCOCC(COCC)(CP(C)C)CP(C)C (99mTc complex, metal not drawn) [PL42]", 5.35],
  ["COCCOCC(COCCOC)(CP(C)C)CP(C)C [PL43]", 9.19],
  ["COCCC(CCOC)(CP(C)C)CP(C)C (99mTc complex, metal not drawn) [PL50]", 12.0]
]}

====

Assay: Animal biodistribution studies of 99mTc complexes in rats
Type: in vivo, Male Sprague Dawley rats
Parameters: unit not given here
Conditions: i.v. tail vein, Time P. I. 2
Procedure: Complex Preparation: 20-25 μl of hydrazine was added to 2 cm^3 of absolute ethanol, then ^99mTcO4^−(0.2-3.0 GBq) and 10 mg of ligand were added to the solution. This mixture was heated to 120° C. for 30-60 minutes, cooled to room temperature and analyzed. For biodistribution studies the total volume of he preparation was made up to 5 cm^3 by the addition of sterile saline solution. […]
Property measured: Liver

{"columns": ["Molecule", "Recorded result"],
 "data": [
  ["CP(C)COCP(C)C (99mTc complex, metal not drawn)", 17.8],
  ["COCCOCC(COCCOC)(CP(C)C)CP(C)C", 21.4],
  ["CCOCC(COCC)(CP(C)C)CP(C)C (99mTc complex, metal not drawn)", 22.8],
  ["COCCC(CCOC)(CP(C)C)CP(C)C (99mTc complex, metal not drawn)", 34.8]
]}

====

Assay: Animal biodistribution studies of 99mTc complexes in rats
Assay type: in vivo, Male Sprague Dawley rats
Details: i.v. tail vein, Time P. I. 60
Property measured: S. I.

{"columns": ["Compound", "Recorded result"],
 "data": [
  ["COCCC(CCOC)(CP(C)C)CP(C)C (99mTc complex, metal not drawn)", 57.9],
  ["CCOCC(COCC)(CP(C)C)CP(C)C (99mTc complex, metal not drawn)", 31.8],
  ["COCCOCC(COCCOC)(CP(C)C)CP(C)C", 45.6],
  ["CP(C)COCP(C)C (99mTc complex, metal not drawn)", 39.6]
]}

====

Assay: Animal biodistribution studies of 99mTc complexes in rats
Assay type: in vivo, Male Sprague Dawley rats
Set-up: unit not given here
Conditions: i.v. tail vein, Time P. I. 60
Property measured: Bladder & Urine

{"columns": ["Molecule", "Property measured", "Recorded result"],
 "data": [
  ["COCCOCC(COCCOC)(CP(C)C)CP(C)C", "Bladder & Urine", 25.4],
  ["CP(C)COCP(C)C (99mTc complex, metal not drawn)", "Bladder & Urine", 10.9],
  ["COCCC(CCOC)(CP(C)C)CP(C)C (99mTc complex, metal not drawn)", "Bladder & Urine", 6.76],
  ["CCOCC(COCC)(CP(C)C)CP(C)C (99mTc complex, metal not drawn)", "Bladder & Urine", 2.61]
]}

====

Test: Animal biodistribution studies of 99mTc complexes in rats
Assay type: in vivo, Male Sprague Dawley rats
Design: unit not given here
Details: i.v. tail vein, Time P. I. 60
Listing of entries alongside the reported Kidney.
Property measured: Kidney

{"columns": ["Molecule", "Recorded result"],
 "data": [
  ["CCOCC(COCC)(CP(C)C)CP(C)C (99mTc complex, metal not drawn)", 3.52],
  ["COCCOCC(COCCOC)(CP(C)C)CP(C)C", 2.32],
  ["COCCC(CCOC)(CP(C)C)CP(C)C (99mTc complex, metal not drawn)", 6.81],
  ["CP(C)COCP(C)C (99mTc complex, metal not drawn)", 5.90]
]}

====

Listing of entries alongside the reported Heart.
Assay: Animal biodistribution studies of 99mTc complexes in rats
Format: in vivo, Male Sprague Dawley rats
Set-up: unit not given here
Conditions: i.v. tail vein, Time P. I. 60

{"columns": ["Compound", "Heart"],
 "data": [
  ["CP(C)COCP(C)C (99mTc complex, metal not drawn) [PL28]", 0.65],
  ["CCOCC(COCC)(CP(C)C)CP(C)C (99mTc complex, metal not drawn) [PL42]", 1.19],
  ["COCCC(CCOC)(CP(C)C)CP(C)C (99mTc complex, metal not drawn) [PL50]", 0.65],
  ["COCCOCC(COCCOC)(CP(C)C)CP(C)C [PL43]", 0.26]
]}

The origin of these recorded values is patent US6515112B2.
